- Experimental system: UniProt:Q8IXJ6
- Measurement description: Inhibition of SIRT2 at 200 uM
Readout type: inhibition (%)

Worked cases, answers included:
C(=N\c1ccc(/N=C/c2ccccc2)cc1)/c1ccccc1	35
COc1cccc(/C=N/c2ccc(/N=C/c3cccc(OC)c3)cc2)c1	20
c1ccc(CNc2ccc(NCc3ccccc3)cc2)cc1	21

(a) Oc1ccccc1CNc1ccc(NCc2ccccc2O)cc1
(b) Oc1ccccc1/C=N/c1ccc(/N=C/c2ccccc2O)cc1
Ask | Could you tell me which of these two has the smaller inhibition figure? First: a Second: b # reply format: chosen label
Reply | a
(a: 27%, b: 56%)

====

- Experimental system: NAD-dependent protein deacetylase sirtuin-2 (Homo sapiens) (UniProt Q8IXJ6)
- Sequence (whole entry): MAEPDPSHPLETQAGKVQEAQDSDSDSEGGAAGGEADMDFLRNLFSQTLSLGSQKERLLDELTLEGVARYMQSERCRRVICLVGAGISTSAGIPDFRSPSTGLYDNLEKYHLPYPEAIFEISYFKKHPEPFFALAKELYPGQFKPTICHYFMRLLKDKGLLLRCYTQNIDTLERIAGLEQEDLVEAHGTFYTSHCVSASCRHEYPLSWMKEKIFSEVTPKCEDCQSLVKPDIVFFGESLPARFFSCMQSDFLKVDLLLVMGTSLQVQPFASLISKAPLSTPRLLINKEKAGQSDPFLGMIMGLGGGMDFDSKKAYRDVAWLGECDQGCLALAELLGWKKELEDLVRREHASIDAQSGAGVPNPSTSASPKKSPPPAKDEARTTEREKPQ
- Measurement description: Inhibition of SIRT2 at 200 uM
Readout type: inhibition (%)

Solved cases (8 shown):
COc1ccccc1/C=N/c1ccc(/N=C/c2ccccc2OC)c2ccccc12	34
Oc1ccccc1/C=N/c1ccc(/N=C/c2ccccc2O)c2ccccc12	38
Oc1ccc(/C=N/c2ccc(/N=C/c3ccc(O)cc3)c3ccccc23)cc1	64
Oc1ccc(/C=N/c2ccc(/N=C/c3ccc(O)c(O)c3)cc2)cc1O	13
COc1cccc(/C=N/c2ccc(/N=C/c3cccc(OC)c3)c3ccccc23)c1	20
COc1ccccc1/C=N/c1ccc(/N=C/c2ccccc2OC)cc1	13
C(=N\c1ccc(/N=C/c2ccccc2)c2ccccc12)/c1ccccc1	18
Oc1cccc(/C=N/c2ccc(/N=C/c3cccc(O)c3)cc2)c1	12

(A) COc1ccc(/C=N/c2ccc(/N=C/c3ccc(OC)cc3)c3ccccc23)cc1
(B) Oc1cccc(CNc2ccc(NCc3cccc(O)c3)cc2)c1
Ask | Just curious, which one has the larger inhibition reading, A or B ? Response format: the label of the selected entry.
Reply | A

(1) Oc1ccc(CNc2ccc(NCc3ccc(O)cc3)cc2)cc1
(2) Oc1cccc(/C=N/c2ccc(/N=C/c3cccc(O)c3)c3ccccc23)c1
Ask | When 1 and 2 are compared, which has the higher number for inhibition? State your choice using its label.
Reply | 2
(2: 53%, 1: 14%)

====

Target chain: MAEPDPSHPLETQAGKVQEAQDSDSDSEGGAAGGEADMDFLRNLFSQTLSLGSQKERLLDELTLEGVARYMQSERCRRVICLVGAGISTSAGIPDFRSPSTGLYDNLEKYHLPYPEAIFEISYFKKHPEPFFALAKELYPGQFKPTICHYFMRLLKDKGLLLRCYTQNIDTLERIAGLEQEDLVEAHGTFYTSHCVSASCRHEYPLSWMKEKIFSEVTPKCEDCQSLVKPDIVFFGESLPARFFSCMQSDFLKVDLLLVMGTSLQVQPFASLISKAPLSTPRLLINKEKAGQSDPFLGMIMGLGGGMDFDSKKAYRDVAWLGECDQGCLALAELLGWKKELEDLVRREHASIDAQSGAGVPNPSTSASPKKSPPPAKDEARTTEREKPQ
Readout type: IC50 (µM)
Write down the numeric answer in µM and omit the unit.

Ask | Value lookup for IC50; key = Oc1cccc(/C=N/c2ccc(/N=C/c3cccc(O)c3)c3ccccc23)c1
Reply | 196

// provenance: ChEMBL document CHEMBL1138228
